compounds and their reported pEC50
Test system: Human immunodeficiency virus 1
METHOD DESCRIPTION: Antiviral activity against HIV-1 infected in human MT4 cells measured on day 5 post-infection by trypan blue dye staining-based method
Assay type: functional, cell-based
APPLIED CONDITIONS: Human immunodeficiency virus 1, MT4, 120 h
pEC50: −log10 of the molar value.
MEASURED METRIC: pEC50

>>> endpoint_value("Nc1nc2c(ncn2CC(CF)OCP(=O)(O)O)c(=O)[nH]1 (stereo not drawn)")
5.30
>>> endpoint_value("Nc1ncnc2c1ncn2C[C@@H](CF)OCP(=O)(O)O")
5.10
>>> endpoint_value("Nc1nc(N)c2ncn(C[C@H](CF)OCP(=O)(O)O)c2n1")
5.37

----------
Tested on: Human betaherpesvirus 5
METHOD DESCRIPTION: Antiviral activity against Human cytomegalovirus AD169 infected in HEL cells assessed as inhibition of virus-induced cytopathic effect
Format: functional, cell-based
APPLIED CONDITIONS: Human betaherpesvirus 5, AD169, HEL
pEC50: −log10 of the molar value.
Please mark yes (1) if the recorded pEC50 is equal to or greater than 4, and no (0) if it falls below.

>>> class_label("CCCCCOC(=O)C[C@H](NP(=O)(CO[C@H](CF)Cn1ccc(N)nc1=O)Oc1ccccc1)C(=O)OCCCCC (some centres not stated)")
"yes (1)"
>>> class_label("Cc1cn(C[C@@H](CF)OCP(=O)(O)O)c(=O)[nH]c1=O")
"no (0)"
>>> class_label("Nc1ccn(C[C@@H](CF)OCP(=O)(O)O)c(=O)n1")
"no (0)"
>>> class_label("CCCCCOC(=O)C[C@H](NP(=O)(CO[C@H](CF)Cn1cnc2c(=O)[nH]c(N)nc21)Oc1ccccc1)C(=O)OCCCCC (some centres not stated)")
"yes (1)"
>>> class_label("Nc1ccn(C[C@@H](CO)OCP(=O)(O)O)c(=O)n1")
"yes (1)"
>>> class_label("CCCCCOC(=O)C[C@H](NP(=O)(CO[C@H](CF)Cn1cnc2c(N)ncnc21)Oc1ccccc1)C(=O)OCCCCC (some centres not stated)")
"yes (1)"
>>> class_label("Nc1ncnc2c1ncn2C[C@@H](CF)OCP(=O)(O)O")
"no (0)"
>>> class_label("Cc1cn(C[C@H](CF)OCP(=O)(O)O)c(=O)[nH]c1=O")
"no (0)"
>>> class_label("CCCCCOC(=O)C[C@H](NP(=O)(CO[C@@H](CF)Cn1cnc2c(=O)[nH]c(N)nc21)Oc1ccccc1)C(=O)OCCCCC (some centres not stated)")
"yes (1)"
>>> class_label("Nc1ccn(C[C@H](CF)OCP(=O)(O)O)c(=O)n1")
"no (0)"
>>> class_label("Nc1ncnc2c1ncn2C[C@H](CF)OCP(=O)(O)O")
"no (0)"
>>> class_label("Nc1nc(O)c2ncn(C[C@H](CF)OCP(=O)(O)O)c2n1")
"no (0)"

----------
METHOD DESCRIPTION: Selectivity index, ratio of CC50 for human TZM-bl cells to EC50 for CXCR4-tropic HIV-1 NL4-3 infected in human TZM-bl cells
Format: toxicity, cell-based
APPLIED CONDITIONS: read-out: Ratio CC50/EC50
compounds and their reported selectivity ratio
MEASURED METRIC: selectivity ratio

>>> endpoint_value("CCCCCOC(=O)C[C@H](NP(=O)(CO[C@H](CF)Cn1ccc(N)nc1=O)Oc1ccccc1)C(=O)OCCCCC (stereo partly drawn)")
"< 1"
>>> endpoint_value("CCCCCOC(=O)C[C@H](NP(=O)(CO[C@H](CF)Cn1cnc2c(N)ncnc21)Oc1ccccc1)C(=O)OCCCCC (stereo partly drawn)")
3320
>>> endpoint_value("Nc1ccn(C[C@H](CF)OCP(=O)(O)O)c(=O)n1")
"> 2"

----------
METHOD DESCRIPTION: Cytotoxicity against human TZM-bl cells assessed as cell viability by tetrazolium dye assay
Type: cell-based
MEASURED METRIC: CC50

>>> endpoint_value("Nc1ncnc2c1ncn2C[C@H](CF)OCP(=O)(O)O")
"> 100 µM"
>>> endpoint_value("C[C@H](Cn1cnc2c(N)ncnc21)OCP(=O)(O)O [TENOFOVIR ANHYDROUS]")
"> 100 µM"
>>> endpoint_value("Nc1ncnc2c1ncn2C[C@@H](CF)OCP(=O)(O)O")
"> 100 µM"
>>> endpoint_value("Cc1cn(C[C@H](CF)OCP(=O)(O)O)c(=O)[nH]c1=O")
"> 100 µM"
>>> endpoint_value("CCCCCOC(=O)C[C@H](NP(=O)(CO[C@H](CF)Cn1ccc(N)nc1=O)Oc1ccccc1)C(=O)OCCCCC (stereo not given in full)")
"69 µM"

----------
METHOD DESCRIPTION: Stability of the compound in phosphate buffer of pH 8 at 1 mg after 14 hrs by 31P NMR spectroscopy
Assay type: physicochemical
APPLIED CONDITIONS: read-out: Stability
MEASURED METRIC: remaining at 14 h

>>> endpoint_value("CCCCCOC(=O)C[C@H](NP(=O)(CO[C@H](CF)Cn1cnc2c(N)ncnc21)Oc1ccccc1)C(=O)OCCCCC (stereo partly specified)")
"58%"

----------
METHOD DESCRIPTION: Cytotoxicity against human TZM-bl cells assessed as cell viability by tetrazolium dye assay
Format: cell-based
MEASURED METRIC: CC50

>>> endpoint_value("Nc1nc(O)c2ncn(C[C@H](CF)OCP(=O)(O)O)c2n1")
"> 100 µM"
>>> endpoint_value("Cc1cn(C[C@@H](CF)OCP(=O)(O)O)c(=O)[nH]c1=O")
"> 100 µM"
>>> endpoint_value("Nc1ccn(C[C@H](CF)OCP(=O)(O)O)c(=O)n1")
"> 100 µM"
>>> endpoint_value("Nc1ccn(C[C@@H](CF)OCP(=O)(O)O)c(=O)n1")
"> 100 µM"
>>> endpoint_value("CCCCCOC(=O)C[C@H](NP(=O)(CO[C@H](CF)Cn1cc(C)c(=O)[nH]c1=O)Oc1ccccc1)C(=O)OCCCCC (stereo partly drawn)")
"43.4 µM"
>>> endpoint_value("CCCCCOC(=O)C[C@H](NP(=O)(CO[C@@H](CF)Cn1cnc2c(N)ncnc21)Oc1ccccc1)C(=O)OCCCCC (stereo partly drawn)")
"37.6 µM"
>>> endpoint_value("CCCCCOC(=O)C[C@H](NP(=O)(CO[C@@H](CF)Cn1ccc(N)nc1=O)Oc1ccccc1)C(=O)OCCCCC (stereo partly drawn)")
"54.2 µM"
>>> endpoint_value("Nc1nc(O)c2ncn(C[C@@H](CF)OCP(=O)(O)O)c2n1")
"> 100 µM"

----------
METHOD DESCRIPTION: Selectivity index, ratio of CC50 for human TZM-bl cells to EC50 for CXCR4-tropic HIV-1 NL4-3 infected in human TZM-bl cells
Assay type: toxicity, cell-based
APPLIED CONDITIONS: read-out: Ratio CC50/EC50
MEASURED METRIC: selectivity ratio

>>> endpoint_value("CCCCCOC(=O)C[C@H](NP(=O)(CO[C@@H](CF)Cn1cnc2c(N)ncnc21)Oc1ccccc1)C(=O)OCCCCC (stereo not given in full)")
269
>>> endpoint_value("CCCCCOC(=O)C[C@H](NP(=O)(CO[C@@H](CF)Cn1cc(C)c(=O)[nH]c1=O)Oc1ccccc1)C(=O)OCCCCC (stereo not given in full)")
1

----------
compounds and their reported CC50
METHOD DESCRIPTION: Cytotoxicity against human HepG2.2.15 cells assessed as cell viability by tetrazolium dye uptake assay
Assay type: cell-based, HepG2 2.2.15
MEASURED METRIC: CC50

>>> endpoint_value("CCCCCOC(=O)C[C@H](NP(=O)(CO[C@H](CF)Cn1cnc2c(=O)[nH]c(N)nc21)Oc1ccccc1)C(=O)OCCCCC (stereo partly drawn)")
"> 100 µM"
>>> endpoint_value("Nc1ncnc2c1ncn2C[C@H](CF)OCP(=O)(O)O")
"> 100 µM"
>>> endpoint_value("CCCCCOC(=O)C[C@H](NP(=O)(CO[C@@H](CF)Cn1cnc2c(=O)[nH]c(N)nc21)Oc1ccccc1)C(=O)OCCCCC (stereo partly drawn)")
"> 100 µM"
>>> endpoint_value("Nc1ccn(C[C@@H](CF)OCP(=O)(O)O)c(=O)n1")
"> 100 µM"
>>> endpoint_value("Nc1ccn([C@@H]2CS[C@H](CO)O2)c(=O)n1 [LAMIVUDINE]")
"> 2 µM"
>>> endpoint_value("Nc1ncnc2c1ncn2C[C@@H](CF)OCP(=O)(O)O")
"> 100 µM"
>>> endpoint_value("CCCCCOC(=O)C[C@H](NP(=O)(CO[C@@H](CF)Cn1cnc2c(N)ncnc21)Oc1ccccc1)C(=O)OCCCCC (stereo partly drawn)")
"33 µM"
>>> endpoint_value("CCCCCOC(=O)C[C@H](NP(=O)(CO[C@@H](CF)Cn1cc(C)c(=O)[nH]c1=O)Oc1ccccc1)C(=O)OCCCCC (stereo partly drawn)")
"34.2 µM"
>>> endpoint_value("C=C1[C@H](CO)[C@@H](O)C[C@@H]1n1cnc2c(=O)[nH]c(N)nc21.O [ENTECAVIR]")
"> 1 µM"
>>> endpoint_value("Nc1ccn(C[C@H](CF)OCP(=O)(O)O)c(=O)n1")
"> 100 µM"
>>> endpoint_value("CCCCCOC(=O)C[C@H](NP(=O)(CO[C@@H](CF)Cn1ccc(N)nc1=O)Oc1ccccc1)C(=O)OCCCCC (stereo partly drawn)")
"33.5 µM"
>>> endpoint_value("Nc1nc(O)c2ncn(C[C@H](CF)OCP(=O)(O)O)c2n1")
"> 100 µM"
>>> endpoint_value("Cc1cn(C[C@H](CF)OCP(=O)(O)O)c(=O)[nH]c1=O")
"> 100 µM"
>>> endpoint_value("CCCCCOC(=O)C[C@H](NP(=O)(CO[C@H](CF)Cn1cc(C)c(=O)[nH]c1=O)Oc1ccccc1)C(=O)OCCCCC (stereo partly drawn)")
"33.5 µM"
>>> endpoint_value("CCCCCOC(=O)C[C@H](NP(=O)(CO[C@H](CF)Cn1ccc(N)nc1=O)Oc1ccccc1)C(=O)OCCCCC (stereo partly drawn)")
"46.3 µM"
>>> endpoint_value("CCCCCOC(=O)C[C@H](NP(=O)(CO[C@H](CF)Cn1cnc2c(N)ncnc21)Oc1ccccc1)C(=O)OCCCCC (stereo partly drawn)")
"20.3 to 22.6 µM"
>>> endpoint_value("Cc1cn(C[C@@H](CF)OCP(=O)(O)O)c(=O)[nH]c1=O")
"> 100 µM"
>>> endpoint_value("Nc1nc(O)c2ncn(C[C@@H](CF)OCP(=O)(O)O)c2n1")
"> 100 µM"
